Test system: HeLa
assay name: Cytotoxicity against Homo sapiens (human) HeLa cells by MTT assay
Format: functional, cell-based
readout: IC50 (µM)
Value expressed in µM; do not type the unit.

// worked examples, IC50 included
CC(C)(C)NCCOc1cc(O)c2c(=O)cc(-c3ccccc3)oc2c1
4.92
CCCNCCOc1cc(O)c2c(=O)cc(-c3ccccc3)oc2c1
56.6

Attention now turns to another entry.
Report IC50 for `CN1CCN(CCOc2cc(O)c3c(=O)cc(-c4ccccc4)oc3c2)CC1` please. 47.4

====

System: HeLa
assay name: Cytotoxicity against Homo sapiens (human) HeLa cells by MTT assay
Format: functional, cell-based
readout: IC50 (µM)
Value expressed in µM; do not type the unit.

Cc1nccn1CCOc1cc(O)c2c(=O)cc(-c3ccccc3)oc2c1
9.7
O=c1cc(-c2ccccc2)oc2cc(OCCN3CCCCC3)cc(O)c12
1.7
CNCCOc1cc(O)c2c(=O)cc(-c3ccccc3)oc2c1
3.72

Lab note: need IC50 with HeLa for entry O=c1cc(-c2ccccc2)oc2cc(O)cc(O)c12 [CHRYSIN] , please look it up. 43

`CCCCNCCOc1cc(O)c2c(=O)cc(-c3ccccc3)oc2c1` ? 40.9

Data credit: ChEMBL document CHEMBL3045913
